Quick note: these are pIC50 numbers for system: EGFR (human), P00533 [Inhibition of EGFR(L858RT/790M) Kinase Activity]
Sequence (P00533 whole entry, looked up, change not shown): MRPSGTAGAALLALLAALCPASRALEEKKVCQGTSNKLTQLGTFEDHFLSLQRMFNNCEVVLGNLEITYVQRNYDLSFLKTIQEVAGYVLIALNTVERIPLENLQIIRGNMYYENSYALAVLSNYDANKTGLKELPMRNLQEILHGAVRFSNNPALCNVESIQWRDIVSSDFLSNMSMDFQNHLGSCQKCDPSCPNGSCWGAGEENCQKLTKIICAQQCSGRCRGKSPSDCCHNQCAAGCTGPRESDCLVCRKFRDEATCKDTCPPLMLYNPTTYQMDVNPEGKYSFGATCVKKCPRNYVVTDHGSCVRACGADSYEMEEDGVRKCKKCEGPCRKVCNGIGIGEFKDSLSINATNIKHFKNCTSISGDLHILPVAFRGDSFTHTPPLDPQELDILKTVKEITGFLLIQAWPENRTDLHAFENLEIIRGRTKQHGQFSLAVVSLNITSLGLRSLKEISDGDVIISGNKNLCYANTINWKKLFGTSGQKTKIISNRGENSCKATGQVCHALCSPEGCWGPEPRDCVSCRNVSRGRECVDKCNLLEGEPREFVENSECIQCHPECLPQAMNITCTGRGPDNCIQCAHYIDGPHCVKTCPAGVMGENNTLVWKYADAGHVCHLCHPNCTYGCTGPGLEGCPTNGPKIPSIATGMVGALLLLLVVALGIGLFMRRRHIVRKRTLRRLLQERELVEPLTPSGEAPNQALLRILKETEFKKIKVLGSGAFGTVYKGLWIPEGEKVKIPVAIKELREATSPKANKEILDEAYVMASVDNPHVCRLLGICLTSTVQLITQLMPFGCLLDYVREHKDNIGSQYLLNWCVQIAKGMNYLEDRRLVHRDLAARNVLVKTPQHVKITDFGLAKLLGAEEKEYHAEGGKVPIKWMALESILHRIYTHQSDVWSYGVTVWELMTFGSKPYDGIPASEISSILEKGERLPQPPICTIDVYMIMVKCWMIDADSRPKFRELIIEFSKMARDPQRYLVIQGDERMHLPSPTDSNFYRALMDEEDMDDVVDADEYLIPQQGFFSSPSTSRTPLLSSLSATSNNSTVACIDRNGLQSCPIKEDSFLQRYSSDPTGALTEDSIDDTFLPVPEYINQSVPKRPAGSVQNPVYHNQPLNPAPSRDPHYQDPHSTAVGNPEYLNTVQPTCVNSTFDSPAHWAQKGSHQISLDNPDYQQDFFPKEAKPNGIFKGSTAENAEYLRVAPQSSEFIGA
pIC50: −log10 of the molar value.

Line notation: C=CC(=O)Nc1cccc(-c2c(-c3ccccc3)oc3ncnc(N[C@H](COC(=O)C=C)c4ccccc4)c23)c1
Target or test system: EGFR (human), P00533 [Inhibition of EGFR(L858RT/790M) Kinase Activity]
pIC50: 6.30 to 8.00
//
Line notation: CN(C)C/C=C/C(=O)Nc1cccc(-c2c(-c3ccccc3)oc3ncnc(N[C@H](CO)c4ccccc4)c23)c1
Target or test system: EGFR (human), P00533 [Inhibition of EGFR(L858RT/790M) Kinase Activity]
pIC50: 6.30 to 8.00
//
Line notation: C=CC(=O)N1CCc2c(sc3ncnc(N[C@H](CO)Cc4ccccc4)c23)C1
Target or test system: EGFR (human), P00533 [Inhibition of EGFR(L858RT/790M) Kinase Activity]
pIC50: 5.60 to 6.30
//
Line notation: CC#CC(=O)Nc1cccc(-c2c(-c3ccccc3)oc3ncnc(N[C@H](CO)c4ccccc4)c23)c1
Target or test system: EGFR (human), P00533 [Inhibition of EGFR(L858RT/790M) Kinase Activity]
pIC50: 5.60 to 6.30
//
Line notation: C=CC(=O)N1CCc2c(sc3ncnc(N[C@H](COCc4ccc(C(F)(F)F)cc4)c4ccccc4)c23)C1
Target or test system: EGFR (human), P00533 [Inhibition of EGFR(L858RT/790M) Kinase Activity]
pIC50: 6.30 to 8.00
//
Line notation: CCN(CC)C/C=C/C(=O)N1CCc2c(sc3ncnc(N[C@H](CO)c4ccccc4)c23)C1
Target or test system: EGFR (human), P00533 [Inhibition of EGFR(L858RT/790M) Kinase Activity]
pIC50: 5.60 to 6.30
//
Line notation: CN(C)C/C=C/C(=O)N1CCc2c(sc3ncnc(N[C@H](COCc4cccc(F)c4)c4ccccc4)c23)C1
Target or test system: EGFR (human), P00533 [Inhibition of EGFR(L858RT/790M) Kinase Activity]
pIC50: 6.30 to 8.00
//
Line notation: CN(C)C/C=C/C(=O)N1CCc2c(sc3ncnc(N[C@H](COCc4ccccc4F)c4ccccc4)c23)C1
Target or test system: EGFR (human), P00533 [Inhibition of EGFR(L858RT/790M) Kinase Activity]
pIC50: 5.60 to 6.30
//
Line notation: C=CC(=O)Nc1cccc(-c2c(-c3ccccc3)oc3ncnc(N[C@H](C)c4ccccc4)c23)c1
Target or test system: EGFR (human), P00533 [Inhibition of EGFR(L858RT/790M) Kinase Activity]
pIC50: 5.60 to 6.30
//
Line notation: CN(C)C/C=C/C(=O)N1CCc2c(sc3ncnc(N[C@H](CO)c4ccccc4)c23)C1
Target or test system: EGFR (human), P00533 [Inhibition of EGFR(L858RT/790M) Kinase Activity]
pIC50: 6.30 to 8.00
//
Line notation: CCN(CC)C/C=C/C(=O)N1CCc2c(sc3ncnc(N[C@H](C)c4ccccc4)c23)C1
Target or test system: EGFR (human), P00533 [Inhibition of EGFR(L858RT/790M) Kinase Activity]
pIC50: 5.60 to 6.30
//
Line notation: C[C@@H](Nc1ncnc2sc3c(c12)CCN(C(=O)/C=C/CNC1CC1)C3)c1ccccc1
Target or test system: EGFR (human), P00533 [Inhibition of EGFR(L858RT/790M) Kinase Activity]
pIC50: 5.60 to 6.30
//
Line notation: C=CC(=O)N1CCc2c(sc3ncnc(N[C@H](CO)c4ccccc4)c23)C1
Target or test system: EGFR (human), P00533 [Inhibition of EGFR(L858RT/790M) Kinase Activity]
pIC50: 6.30 to 8.00
//
Line notation: C=CC(=O)N1CCc2c(sc3ncnc(N[C@H](COCc4ccccc4)c4ccccc4)c23)C1
Target or test system: EGFR (human), P00533 [Inhibition of EGFR(L858RT/790M) Kinase Activity]
pIC50: 6.30 to 8.00
//
Line notation: C=CC(=O)N1CCc2c(sc3ncnc(N[C@H](C)c4ccccc4)c23)C1
Target or test system: EGFR (human), P00533 [Inhibition of EGFR(L858RT/790M) Kinase Activity]
pIC50: 5.60 to 6.30
//
Line notation: C[C@@H](Nc1ncnc2sc3c(c12)CCN(C(=O)/C=C/CN(C)C)C3)c1ccccc1
Target or test system: EGFR (human), P00533 [Inhibition of EGFR(L858RT/790M) Kinase Activity]
pIC50: 5.60 to 6.30
//
Line notation: CNC/C=C/C(=O)N1CCc2c(sc3ncnc(N[C@H](C)c4ccccc4)c23)C1
Target or test system: EGFR (human), P00533 [Inhibition of EGFR(L858RT/790M) Kinase Activity]
pIC50: 5.60 to 6.30
//
Line notation: C=CC(=O)N1CCc2c(sc3ncnc(N[C@H](CC)c4ccccc4)c23)C1
Target or test system: EGFR (human), P00533 [Inhibition of EGFR(L858RT/790M) Kinase Activity]
pIC50: 5.60 to 6.30
